Molecular target: VLA-4 (Mus musculus, UniProt P09055+Q00651)
Construct: monocytes collected from a spleen of a mouse; endogenous in cells
Sequence (Q00651 41-1039): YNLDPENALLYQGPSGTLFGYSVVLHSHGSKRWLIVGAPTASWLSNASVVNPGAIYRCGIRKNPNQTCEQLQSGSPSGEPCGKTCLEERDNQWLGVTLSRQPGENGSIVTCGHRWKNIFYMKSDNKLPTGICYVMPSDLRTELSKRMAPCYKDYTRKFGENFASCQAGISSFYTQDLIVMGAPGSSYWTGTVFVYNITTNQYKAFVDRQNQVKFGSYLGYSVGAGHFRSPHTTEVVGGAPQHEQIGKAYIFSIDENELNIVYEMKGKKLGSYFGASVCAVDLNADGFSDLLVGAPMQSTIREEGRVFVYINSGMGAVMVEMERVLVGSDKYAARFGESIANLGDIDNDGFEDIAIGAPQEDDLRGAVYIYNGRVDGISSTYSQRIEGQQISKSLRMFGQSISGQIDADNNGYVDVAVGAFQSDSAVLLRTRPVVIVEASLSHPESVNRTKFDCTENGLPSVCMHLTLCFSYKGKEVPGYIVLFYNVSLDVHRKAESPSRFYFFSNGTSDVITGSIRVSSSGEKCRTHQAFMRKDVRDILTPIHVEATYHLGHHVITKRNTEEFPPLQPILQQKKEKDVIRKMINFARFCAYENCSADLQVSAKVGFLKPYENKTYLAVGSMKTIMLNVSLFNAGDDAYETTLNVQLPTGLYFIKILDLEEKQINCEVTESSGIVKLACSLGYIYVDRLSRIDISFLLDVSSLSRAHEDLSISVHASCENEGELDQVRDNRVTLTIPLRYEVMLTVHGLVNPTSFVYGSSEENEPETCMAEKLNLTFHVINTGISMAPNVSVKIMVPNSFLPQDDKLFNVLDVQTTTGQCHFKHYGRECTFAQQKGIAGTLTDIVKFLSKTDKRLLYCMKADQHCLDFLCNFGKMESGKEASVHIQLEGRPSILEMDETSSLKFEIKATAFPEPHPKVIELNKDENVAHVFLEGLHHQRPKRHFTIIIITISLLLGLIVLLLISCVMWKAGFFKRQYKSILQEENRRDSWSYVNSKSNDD
Sequence (P09055 21-798): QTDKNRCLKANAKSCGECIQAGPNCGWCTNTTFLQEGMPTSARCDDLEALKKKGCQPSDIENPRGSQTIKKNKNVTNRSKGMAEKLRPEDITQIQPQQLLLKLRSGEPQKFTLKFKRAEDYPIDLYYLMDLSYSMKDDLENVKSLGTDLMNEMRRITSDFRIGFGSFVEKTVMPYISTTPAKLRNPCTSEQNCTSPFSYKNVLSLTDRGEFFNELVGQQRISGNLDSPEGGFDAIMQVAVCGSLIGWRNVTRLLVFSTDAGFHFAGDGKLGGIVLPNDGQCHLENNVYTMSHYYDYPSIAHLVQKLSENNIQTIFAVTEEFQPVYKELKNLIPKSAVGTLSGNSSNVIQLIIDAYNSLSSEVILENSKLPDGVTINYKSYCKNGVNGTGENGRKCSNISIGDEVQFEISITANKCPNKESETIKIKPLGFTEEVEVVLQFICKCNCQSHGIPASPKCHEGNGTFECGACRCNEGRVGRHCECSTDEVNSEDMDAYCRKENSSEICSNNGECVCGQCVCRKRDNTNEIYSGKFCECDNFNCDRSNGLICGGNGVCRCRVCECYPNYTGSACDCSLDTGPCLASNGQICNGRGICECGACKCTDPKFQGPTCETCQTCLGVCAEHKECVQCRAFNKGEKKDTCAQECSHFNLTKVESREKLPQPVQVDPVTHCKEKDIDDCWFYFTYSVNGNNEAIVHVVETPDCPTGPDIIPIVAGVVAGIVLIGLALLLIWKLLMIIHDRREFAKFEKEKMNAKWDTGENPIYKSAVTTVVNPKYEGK
Experiment: [^11C]HCA2969 binding to VLA-4 in mouse monocytes (saturation, Scatchard analysis)
Settings: 2 × 10^6 spleen monocytes, 0.025 nM to 25.6 nM, room temperature, 20 minutes, read-out: equilibrium dissociation constant Kd
pKd: −log10 of the molar value.
experimental_endpoint: pKd

INSERT INTO measurements (compound, recorded_result) VALUES
  ('CN(C)c1ccc2c(c1)c(=O)n(-c1ccc(CC(NC(=O)c3c(Cl)cccc3Cl)C(=O)O)cc1)c(=O)n2[11CH3] (stereo not shown) [[^11C]HCA2969]', 9.80);
